B1: Hairpin Ribozyme (parent)
chain: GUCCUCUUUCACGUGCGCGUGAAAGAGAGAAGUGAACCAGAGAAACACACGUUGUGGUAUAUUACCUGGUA

variants of: B1; experiment: self-cleavage, relative activity (ratio to wild type); higher = more cleavage; co-transcriptional
Reported self-cleavage values follow for various variants
# answer = number (no unit)

Alteration	Metric	Reading
A23U A36U	self-cleavage	0.491
A44G A49U	self-cleavage	0.0347
A44U A45U	self-cleavage	0.229

stdin: Requested read-out: self-cleavage. Entry: G17A U70A
stdout: 0.897

stdin: Next up: A47C G54C
stdout: 0.228

stdin: Next up: C38U A41U
stdout: 0.742

stdin: Next up: A11U A31G
stdout: 0.464

stdin: Next up: G15C U33G
stdout: 0.0645

stdin: Next up: C18G A36G
stdout: 0.68

stdin: Next up: U9C G42A
stdout: 0.081

stdin: Next up: U2C A23U
stdout: 0.185

stdin: Next up: G25U A61U
stdout: 0.185

stdin: Next up: U7A A43U
stdout: 0.216
